pIC50 values, listed per item
molecular target: Plasminogen (Rattus norvegicus, UniProt Q01177)
Sequence (Q01177 97-581 limits assumed): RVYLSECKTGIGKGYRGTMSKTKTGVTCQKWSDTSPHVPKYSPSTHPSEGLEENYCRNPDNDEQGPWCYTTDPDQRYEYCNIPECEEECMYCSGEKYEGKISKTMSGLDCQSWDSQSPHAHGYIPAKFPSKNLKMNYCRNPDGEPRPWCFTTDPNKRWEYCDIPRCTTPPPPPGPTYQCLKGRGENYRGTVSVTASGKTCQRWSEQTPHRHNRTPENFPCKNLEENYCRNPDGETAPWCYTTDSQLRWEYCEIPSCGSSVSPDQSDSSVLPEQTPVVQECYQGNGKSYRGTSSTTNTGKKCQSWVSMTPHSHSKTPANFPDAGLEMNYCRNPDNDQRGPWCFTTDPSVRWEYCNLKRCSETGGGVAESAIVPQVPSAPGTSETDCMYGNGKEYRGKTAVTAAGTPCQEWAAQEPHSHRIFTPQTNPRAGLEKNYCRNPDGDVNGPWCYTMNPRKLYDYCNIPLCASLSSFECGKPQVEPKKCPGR
Sequence (Q01177 582-812 limits assumed): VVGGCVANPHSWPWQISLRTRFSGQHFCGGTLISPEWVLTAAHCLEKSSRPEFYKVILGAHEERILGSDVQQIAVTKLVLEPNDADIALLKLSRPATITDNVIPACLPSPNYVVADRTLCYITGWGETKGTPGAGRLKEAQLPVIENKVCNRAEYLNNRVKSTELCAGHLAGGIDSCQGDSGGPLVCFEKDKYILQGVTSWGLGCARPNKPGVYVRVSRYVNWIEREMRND
pIC50: −log10 of the molar value.
measured-attribute: pIC50

O=C(O)[C@@H]1[C@@H](CCC2CCCNC2)C(=O)N1C(=O)N1CCN(C(=O)CCCCCc2ccccc2)CC1 (some centres not stated) = 6.51
CC(C)C(OC(=O)N1CCN(C(=O)N2C(=O)[C@H](CC3CCNCC3)[C@H]2C(=O)O)CC1)C(C)C = 5.21

* * *

# reported pIC50; entries follow
target: Prothrombin (Homo sapiens, UniProt P00734)
pIC50: −log10 of the molar value.
measured-attribute: pIC50

O=C(O)[C@@H]1[C@@H](CCC2CCCNC2)C(=O)N1C(=O)N1CCN(C(=O)CCCCCc2ccccc2)CC1 (some centres not stated) = < 4.48
CC(C)C(OC(=O)N1CCN(C(=O)N2C(=O)[C@H](CC3CCNCC3)[C@H]2C(=O)O)CC1)C(C)C = < 4.48

Source: ChEMBL document CHEMBL1147562
